system: Trichoderma virens ATCC 9645; test: growth yield (OD600) with compound + IPBC relative to untreated control; higher = less growth inhibition; conditions: compound concentration: 100 uM; IPBC concentration: 200 ng/ml; 72 h
Where a name gives a salt, the structure may show the parent alone. The campaign covered roughly 1,300 compounds. About 130 (10%) showed an effect of 50% or more. The sample as a whole holds a higher share of strong results than the screen did.

{"molecule": "CC(=O)c1ccc2c(c1)N(CCCN(C)C)c1ccccc1S2 [Acetopromazine maleate salt] + CCCCNC(=O)OCC#CI [3-iodo-2-propynyl butylcarbamate (IPBC)]", "experimental.system": "Trichoderma virens ATCC 9645", "growth yield (%)": 91.6}
{"molecule": "Nc1nc(/C(=C/CC(=O)O)C(=O)N[C@@H]2C(=O)N3C(C(=O)O)=CCS[C@H]23)cs1 [Ceftibuten] + CCCCNC(=O)OCC#CI [3-iodo-2-propynyl butylcarbamate (IPBC)]", "experimental.system": "Trichoderma virens ATCC 9645", "growth yield (%)": 94}
{"molecule": "C[N+]1(C)CCC(OC(=O)C(O)(c2ccccc2)C2CCCC2)C1 (stereo unspecified) [Glycopyrrolate] + CCCCNC(=O)OCC#CI [3-iodo-2-propynyl butylcarbamate (IPBC)]", "experimental.system": "Trichoderma virens ATCC 9645", "growth yield (%)": 98.7}
{"molecule": "CN1CCN(CCCN2c3ccccc3Sc3ccc(C(F)(F)F)cc32)CC1 [Trifluoperazine dihydrochloride] + CCCCNC(=O)OCC#CI [3-iodo-2-propynyl butylcarbamate (IPBC)]", "experimental.system": "Trichoderma virens ATCC 9645", "growth yield (%)": 3.46}
{"molecule": "Cc1c(NC(C)C)c(=O)n(-c2ccccc2)n1C [Isopyrin hydrochloride] + CCCCNC(=O)OCC#CI [3-iodo-2-propynyl butylcarbamate (IPBC)]", "experimental.system": "Trichoderma virens ATCC 9645", "growth yield (%)": 91.2}
{"molecule": "CC(C)(S)C(N)C(=O)O (racemic) [D,L-Penicillamine] + CCCCNC(=O)OCC#CI [3-iodo-2-propynyl butylcarbamate (IPBC)]", "experimental.system": "Trichoderma virens ATCC 9645", "growth yield (%)": 94.2}
{"molecule": "CC(=O)CC(c1ccccc1)c1c(O)c2ccccc2oc1=O (stereo unspecified) [Warfarin] + CCCCNC(=O)OCC#CI [3-iodo-2-propynyl butylcarbamate (IPBC)]", "experimental.system": "Trichoderma virens ATCC 9645", "growth yield (%)": 93}
{"molecule": "CC(=O)N(CC(O)CO)c1c(I)c(C(=O)NCC(O)CO)c(I)c(C(=O)NCC(O)CO)c1I (stereo unspecified) [Iohexol] + CCCCNC(=O)OCC#CI [3-iodo-2-propynyl butylcarbamate (IPBC)]", "experimental.system": "Trichoderma virens ATCC 9645", "growth yield (%)": 93.7}
{"molecule": "CN1CCCC(CC2c3ccccc3Sc3ccccc32)C1 (stereo unspecified) [Metixene hydrochloride] + CCCCNC(=O)OCC#CI [3-iodo-2-propynyl butylcarbamate (IPBC)]", "experimental.system": "Trichoderma virens ATCC 9645", "growth yield (%)": 85.3}
{"molecule": "COc1ccc(C(=O)NCc2ccc(OCCN(C)C)cc2)cc1OC [Itopride] + CCCCNC(=O)OCC#CI [3-iodo-2-propynyl butylcarbamate (IPBC)]", "experimental.system": "Trichoderma virens ATCC 9645", "growth yield (%)": 102}
{"molecule": "O=c1oc2ccccc2c(O)c1Cc1c(O)c2ccccc2oc1=O [Dicumarol] + CCCCNC(=O)OCC#CI [3-iodo-2-propynyl butylcarbamate (IPBC)]", "experimental.system": "Trichoderma virens ATCC 9645", "growth yield (%)": 93.2}
{"molecule": "CN(C)CCOC(=O)COc1ccc(Cl)cc1 [Meclofenoxate hydrochloride] + CCCCNC(=O)OCC#CI [3-iodo-2-propynyl butylcarbamate (IPBC)]", "experimental.system": "Trichoderma virens ATCC 9645", "growth yield (%)": 96.7}
{"molecule": "CN(CCCN1c2ccccc2CCc2ccccc21)CC(=O)c1ccc(Cl)cc1 [Lofepramine] + CCCCNC(=O)OCC#CI [3-iodo-2-propynyl butylcarbamate (IPBC)]", "experimental.system": "Trichoderma virens ATCC 9645", "growth yield (%)": 91.7}
{"molecule": "OC(CCCN1CCCCC1)(c1ccccc1)c1ccccc1 [Diphenidol hydrochloride] + CCCCNC(=O)OCC#CI [3-iodo-2-propynyl butylcarbamate (IPBC)]", "experimental.system": "Trichoderma virens ATCC 9645", "growth yield (%)": 96.7}
{"molecule": "CCN(CC)CCOc1ccc(C(=C(Cl)c2ccccc2)c2ccccc2)cc1 [Clomiphene citrate (Z,E)] + CCCCNC(=O)OCC#CI [3-iodo-2-propynyl butylcarbamate (IPBC)]", "experimental.system": "Trichoderma virens ATCC 9645", "growth yield (%)": 2.94}
{"molecule": "CNCCCN1c2ccccc2CCc2ccccc21 [Desipramine hydrochloride] + CCCCNC(=O)OCC#CI [3-iodo-2-propynyl butylcarbamate (IPBC)]", "experimental.system": "Trichoderma virens ATCC 9645", "growth yield (%)": 93.5}
{"molecule": "CC(O)(CS(=O)(=O)c1ccc(F)cc1)C(=O)Nc1ccc(C#N)c(C(F)(F)F)c1 (stereo unspecified) [Bicalutamide] + CCCCNC(=O)OCC#CI [3-iodo-2-propynyl butylcarbamate (IPBC)]", "experimental.system": "Trichoderma virens ATCC 9645", "growth yield (%)": 97.5}
{"molecule": "CC/C(=C(\\c1ccccc1)c1ccc(OCCN(C)C)cc1)c1ccccc1 [Tamoxifen citrate] + CCCCNC(=O)OCC#CI [3-iodo-2-propynyl butylcarbamate (IPBC)]", "experimental.system": "Trichoderma virens ATCC 9645", "growth yield (%)": 3.36}
{"molecule": "CCN(CC)CCOC(=O)C(c1ccccc1)c1ccccc1 [Adiphenine hydrochloride] + CCCCNC(=O)OCC#CI [3-iodo-2-propynyl butylcarbamate (IPBC)]", "experimental.system": "Trichoderma virens ATCC 9645", "growth yield (%)": 92.8}
{"molecule": "CC(=O)c1ccc2c(c1)N(CCCN1CCC(CCO)CC1)c1ccccc1S2 [Piperacetazine] + CCCCNC(=O)OCC#CI [3-iodo-2-propynyl butylcarbamate (IPBC)]", "experimental.system": "Trichoderma virens ATCC 9645", "growth yield (%)": 94.8}
{"molecule": "CC1CS(=O)(=O)CCN1/N=C/c1ccc([N+](=O)[O-])o1 (stereo unspecified) [Nifurtimox] + CCCCNC(=O)OCC#CI [3-iodo-2-propynyl butylcarbamate (IPBC)]", "experimental.system": "Trichoderma virens ATCC 9645", "growth yield (%)": 91.9}

====

system: Trichoderma virens ATCC 9645; test: growth yield (OD600) with compound + IPBC relative to untreated control; higher = less growth inhibition; details: compound concentration: 100 uM; IPBC concentration: 200 ng/ml; 72 h
Counter-ions that a name gives are not always drawn. Screen size: about 1,300 compounds; about 130 (10%) showed an effect of 50% or more. For the sample, strong results were picked, then their nearest neighbours and some compounds at random.

{"compound": "CCN1CCCC(OC(=O)C(c2ccccc2)c2ccccc2)C1 (stereo not given) [Piperidolate hydrochloride] + CCCCNC(=O)OCC#CI [3-iodo-2-propynyl butylcarbamate (IPBC)]", "growth yield / %": 94.1}
{"compound": "COC(=O)Nc1nc2cc(C(=O)c3ccccc3)ccc2[nH]1 [Mebendazole] + CCCCNC(=O)OCC#CI [3-iodo-2-propynyl butylcarbamate (IPBC)]", "growth yield / %": 89.4}
{"compound": "CCCCc1ccc2[nH]c(NC(=O)OC)nc2c1 [Parbendazole] + CCCCNC(=O)OCC#CI [3-iodo-2-propynyl butylcarbamate (IPBC)]", "growth yield / %": 80.2}
{"compound": "CC(C(=O)O)c1ccc(C(=O)c2ccccc2)s1 (stereo not given) [Tiaprofenic acid] + CCCCNC(=O)OCC#CI [3-iodo-2-propynyl butylcarbamate (IPBC)]", "growth yield / %": 83.4}
{"compound": "NC[C@@H]1O[C@H](O[C@H]2[C@@H](O)[C@H](O[C@@H]3[C@@H](O)[C@H](N)C[C@H](N)[C@H]3O[C@H]3O[C@H](CO)[C@@H](O)[C@H](O)[C@H]3N)O[C@@H]2CO)[C@H](N)[C@@H](O)[C@@H]1O [Paromomycin sulfate] + CCCCNC(=O)OCC#CI [3-iodo-2-propynyl butylcarbamate (IPBC)]", "growth yield / %": 86.5}

====

test system: Trichoderma virens ATCC 9645; assay: growth yield (OD600) with compound + IPBC relative to untreated control; higher = less growth inhibition; details: compound concentration: 100 uM; IPBC concentration: 200 ng/ml; 72 h
Screen size: about 1,300 compounds; about 130 (10%) showed an effect of 50% or more. The entries come from a sample that favours strong results as a whole.

{"compound": "Clc1ccc(C(Cn2ccnc2)OCc2ccsc2Cl)c(Cl)c1 (stereo not drawn) [Tioconazole] + CCCCNC(=O)OCC#CI [3-iodo-2-propynyl butylcarbamate (IPBC)]", "quantity.unit": "%", "growth yield": 2.52}
{"compound": "Clc1ccc(C(Cn2ccnc2)OCc2c(Cl)cccc2Cl)c(Cl)c1 (stereo not drawn) [Isoconazole] + CCCCNC(=O)OCC#CI [3-iodo-2-propynyl butylcarbamate (IPBC)]", "quantity.unit": "%", "growth yield": 2.83}
{"compound": "Clc1ccc(CSC(Cn2ccnc2)c2ccc(Cl)cc2Cl)cc1 (stereo not drawn) [Sulconazole nitrate] + CCCCNC(=O)OCC#CI [3-iodo-2-propynyl butylcarbamate (IPBC)]", "quantity.unit": "%", "growth yield": 2.41}
